Test: Human HepG2 cell viability assay in 384 well format
Format: toxicity, cell-based
Design: dose 125 nL, time 70.5 hour; concentration not given beside the values
Details: HepG2 cells, read-out: Inhibition
I'd appreciate it if you could supply cytotoxicity at 70.5 h values for the items below.
Expressed in %, but write only the number.

In: # get_value(readout='cytotoxicity at 70.5 h', item= CC(C)Cc1nc(CN2CCN(CC(O)c3ccccc3)CC2)no1 (stereo unspecified) )
Out: -3.23

In: # get_value(readout='cytotoxicity at 70.5 h', item= Cc1cc(CNc2cc(-c3ccoc3C)nn2CCO)c(C)o1 )
Out: -12.2

In: # get_value(readout='cytotoxicity at 70.5 h', item= CCc1ccc2c(c1)C(CCNC(=O)Cc1cccc(F)c1)C(=O)N2 (stereo unspecified) )
Out: -4.81

In: # get_value(readout='cytotoxicity at 70.5 h', item= Cc1nc(CN)cc(N2CCC(O)(c3ccc(Cl)cc3)CC2)n1 )
Out: -1.91

In: # get_value(readout='cytotoxicity at 70.5 h', item= Cc1cc(CNC(=O)NC(C)c2ccc(N3CCOCC3)cc2)no1 (stereo unspecified) )
Out: -5.55

In: # get_value(readout='cytotoxicity at 70.5 h', item= CC(C)N(C)Cc1ccccc1CNc1ccc2nncn2n1 )
Out: -12

====

Test: Human HepG2 cell viability assay in 384 well format
Type: toxicity, cell-based
Design: dose 125 nL, time 70.5 hour; concentration not given beside the values
Settings: HepG2 cells, read-out: Inhibition
endpoint name: cytotoxicity at 70.5 h (%)
Expressed in %, but write only the number.

In: # get_value(readout='cytotoxicity at 70.5 h', item= N#Cc1ccc(N2CCCN(CC(=O)N3CCNC(=O)C3)CC2)cc1 )
Out: 3.9

In: # get_value(readout='cytotoxicity at 70.5 h', item= CC(C)c1nc(CNc2nccc(CCC(F)(F)F)n2)cs1 )
Out: -8.19

In: # get_value(readout='cytotoxicity at 70.5 h', item= COCC(c1cccc(C(F)(F)F)c1)N(C)C(=O)c1ccncc1 (stereo unspecified) )
Out: 30.8

In: # get_value(readout='cytotoxicity at 70.5 h', item= COc1ccc(CN(CCC#N)CCN2CCOCC2)cc1OC )
Out: -10.2

In: # get_value(readout='cytotoxicity at 70.5 h', item= CCCC(=O)N(C)c1cc(C#N)c2ccccc2n1 )
Out: -2.82

In: # get_value(readout='cytotoxicity at 70.5 h', item= CN(C)S(=O)(=O)c1ccc(CNC(=O)c2cn3c(n2)CNCC3)cc1 )
Out: 14.9

====

Assay: Human HepG2 cell viability assay in 384 well format
Format: toxicity, cell-based
Parameters: dose 125 nL, time 70.5 hour; concentration not given beside the values
Details: HepG2 cells, read-out: Inhibition
I'd appreciate it if you could supply cytotoxicity at 70.5 h values for the items below.
Expressed in %, but write only the number.

In: # get_value(readout='cytotoxicity at 70.5 h', item= O=C1CN(CCCNC(=O)Nc2cccc(Cl)c2F)CCN1 )
Out: -2.99

In: # get_value(readout='cytotoxicity at 70.5 h', item= CCOc1ccc(C(=O)N2Cc3cnc(CC)nc3C2)o1 )
Out: -3.48

In: # get_value(readout='cytotoxicity at 70.5 h', item= CN1CCC(O)(CNC(=O)c2cc(COc3cccc(F)c3)[nH]n2)CC1 )
Out: -6.87

In: # get_value(readout='cytotoxicity at 70.5 h', item= Cc1nc(CN2C[C@@H]3CN(C(=O)c4cnccn4)C[C@@H]3C2)cs1 )
Out: -11.6

In: # get_value(readout='cytotoxicity at 70.5 h', item= O=C(CN1CCOCC1)N1CCN(C2CCc3ccc(F)cc32)CC1 (stereo not drawn) )
Out: -4.68

In: # get_value(readout='cytotoxicity at 70.5 h', item= CN(C)CC1(O)CCCN(C(=O)c2ccccc2-n2cncn2)C1 (stereo not drawn) )
Out: -3.77

In: # get_value(readout='cytotoxicity at 70.5 h', item= CCn1cc(CN2CCCn3nc(CNC(=O)N(C)C)cc3C2)cn1 )
Out: -7.73

In: # get_value(readout='cytotoxicity at 70.5 h', item= Cc1ccc(CNC2CCc3[nH]c(=O)ccc3C2)cc1C (stereo not drawn) )
Out: 2.24

In: # get_value(readout='cytotoxicity at 70.5 h', item= Cn1cnnc1C1CCCN(C(=O)c2ccc3c(c2)OCCO3)C1 (stereo not drawn) )
Out: -4.4

In: # get_value(readout='cytotoxicity at 70.5 h', item= CN(C)CCNC(=O)c1ccc(OC2CCN(C(=O)CO)CC2)c(Cl)c1 )
Out: -7.98

In: # get_value(readout='cytotoxicity at 70.5 h', item= O=C(CCC(=O)N1CCc2ccccc2C1)c1cccs1 )
Out: 2.72

In: # get_value(readout='cytotoxicity at 70.5 h', item= OC1(CNCCSCc2ccccc2)CCCNC1 (stereo not drawn) )
Out: 18.4

In: # get_value(readout='cytotoxicity at 70.5 h', item= CCOCC1CC2(CCN(C(=O)c3ccccn3)CC2)CO1 (stereo not drawn) )
Out: -6.81

In: # get_value(readout='cytotoxicity at 70.5 h', item= CN(C)C(=O)COc1ccccc1CN1CCOC2(CCCC2)C1 )
Out: 0.31

In: # get_value(readout='cytotoxicity at 70.5 h', item= CC(SCC(=O)NCCC#N)c1ccc(Cl)cc1 (stereo not drawn) )
Out: -18.4

In: # get_value(readout='cytotoxicity at 70.5 h', item= Cc1nn(C)c(C)c1CCC(=O)Nc1cn(C)c(=O)n(C)c1=O )
Out: -1.93

In: # get_value(readout='cytotoxicity at 70.5 h', item= N#CCCN1CCN(S(=O)(=O)c2ccc(Cl)s2)CC1 )
Out: 15.9

In: # get_value(readout='cytotoxicity at 70.5 h', item= COc1cc(CC(O)CO)c(OC)c2c1OCO2 (stereo not drawn) )
Out: 30.2

In: # get_value(readout='cytotoxicity at 70.5 h', item= Cc1cc(NC(=O)CN2CCCC(Cn3cncn3)C2)no1 (stereo not drawn) )
Out: -3.46

In: # get_value(readout='cytotoxicity at 70.5 h', item= Cn1cccc1C(=O)N1CCc2ncc(Cn3cccn3)n2CC1 )
Out: 16.9

In: # get_value(readout='cytotoxicity at 70.5 h', item= O=C(NCc1ccccc1CO)Nc1ccc2c(c1)CCC2 )
Out: -1.72

In: # get_value(readout='cytotoxicity at 70.5 h', item= CC(c1ccc(F)cc1)N1CCN(Cc2nccn2C)CC1 (stereo not drawn) )
Out: 4.48

In: # get_value(readout='cytotoxicity at 70.5 h', item= Cc1cccc(N2CCN(C(=O)CC3(O)CCCC3)C(C)C2)n1 (stereo not drawn) )
Out: 0.326

In: # get_value(readout='cytotoxicity at 70.5 h', item= Cc1nc(C)n(CC2CN(Cc3cccc(C#N)c3)CCO2)n1 (stereo not drawn) )
Out: -24.6

In: # get_value(readout='cytotoxicity at 70.5 h', item= CN(C)C1CCN(C(=O)c2ccnn2-c2ccc3ccccn23)CC1 )
Out: -5.01

In: # get_value(readout='cytotoxicity at 70.5 h', item= COCc1cc(N2CCOC(c3ccc(Cl)cc3)C2)ncn1 (stereo not drawn) )
Out: -10.8

In: # get_value(readout='cytotoxicity at 70.5 h', item= Cc1n[nH]c(C)c1-c1nccnc1CC1CCNC1 (stereo not drawn) )
Out: -2.8

In: # get_value(readout='cytotoxicity at 70.5 h', item= CC(=O)NCC(=O)N1CCc2nc(C)nc(C)c2CC1 )
Out: 5.59

In: # get_value(readout='cytotoxicity at 70.5 h', item= Cn1cnnc1S(=O)(=O)C1CCN(C(=O)c2ccsc2)CC1 )
Out: -9.56

In: # get_value(readout='cytotoxicity at 70.5 h', item= O=C(NCc1ccco1)[C@H]1C[C@@H]2CCN(c3ccncn3)C[C@@H]2O1 )
Out: -5.88

In: # get_value(readout='cytotoxicity at 70.5 h', item= CCc1[nH]ncc1C(=O)N1CCCC(n2nc(C)cc2C)C1 (stereo not drawn) )
Out: -10.3

In: # get_value(readout='cytotoxicity at 70.5 h', item= O=C(c1ccn(-c2ccc(F)cc2)n1)N(CCO)Cc1cccnc1 )
Out: 15.5

In: # get_value(readout='cytotoxicity at 70.5 h', item= CC(C)N1CCOCC2(CCN(c3cnccn3)CC2)C1 )
Out: -11.1

In: # get_value(readout='cytotoxicity at 70.5 h', item= Cc1cc(C(F)(F)F)n2nc(C3CCCN3C3CCSCC3)cc2n1 (stereo not drawn) )
Out: -2.47

In: # get_value(readout='cytotoxicity at 70.5 h', item= Cc1ccc(N2CCCC(NCC3=Cc4ccccc4OC3)C2)nn1 (stereo not drawn) )
Out: -5.84

In: # get_value(readout='cytotoxicity at 70.5 h', item= CCN1CC2(CCC1=O)CCN(C(=O)c1cn3cccnc3n1)CC2 )
Out: 34.9

In: # get_value(readout='cytotoxicity at 70.5 h', item= COc1ncc(CN2C[C@@H]3C[C@@H](O)CN3C[C@@H]2Cc2ccccc2)cn1 )
Out: 18.8

In: # get_value(readout='cytotoxicity at 70.5 h', item= CCCNC(=O)CCNc1cncc(-n2nc(C)cc2C)n1 )
Out: -4.63

In: # get_value(readout='cytotoxicity at 70.5 h', item= CC[C@@]1(O)CCN(C(=O)CCNC(=O)c2ccc(F)cc2)C[C@H]1O )
Out: -5.99

In: # get_value(readout='cytotoxicity at 70.5 h', item= CCOCCCC(=O)NCC(c1ccccc1)N1CCc2sccc2C1 (stereo not drawn) )
Out: 16.8

In: # get_value(readout='cytotoxicity at 70.5 h', item= COc1ccc(F)cc1CN1CCCn2nc(CNS(C)(=O)=O)cc2C1 )
Out: -5.04

In: # get_value(readout='cytotoxicity at 70.5 h', item= O=S1(=O)CCC(n2cc(CNc3ccccc3Br)cn2)C1 (stereo not drawn) )
Out: 31.4

In: # get_value(readout='cytotoxicity at 70.5 h', item= Cc1cnccc1CN(C)C1CCN(c2ncnc3[nH]cnc23)CC1 )
Out: -6.65

In: # get_value(readout='cytotoxicity at 70.5 h', item= CN(CCOc1cccc(CN)c1)C1CCOCC1 )
Out: -8.25

In: # get_value(readout='cytotoxicity at 70.5 h', item= Cc1n[nH]c(C)c1C(N)C(=O)NCCc1csc(C(C)C)n1 (stereo not drawn) )
Out: -11.3

In: # get_value(readout='cytotoxicity at 70.5 h', item= CN1CCC(Cc2cncc(-c3ccccc3C(=O)O)n2)C1 (stereo not drawn) )
Out: -6.47

In: # get_value(readout='cytotoxicity at 70.5 h', item= NC(=O)C1CCN(CC(=O)N(Cc2ccccc2)Cc2nccs2)CC1 )
Out: -7.45

In: # get_value(readout='cytotoxicity at 70.5 h', item= CC(O)CN1CCN(C(=O)c2ccc(N(C)C)nn2)CC1 (stereo not drawn) )
Out: -4.33
